- Tested on: NCI-H650
- method: relative viability (nuclei count vs DMSO), 5 days (fraction); higher = more cells survive
- condition: first compound 1 µM
property-measured: relative viability

molecule="NC(=O)Nc1cc(-c2cccc(F)c2)sc1C(=O)N[C@H]1CCCNC1 [AZD7762] + Nc1ncn([C@H]2C[C@H](O)[C@@H](CO)O2)c(=O)n1 [Decitabine] (partner 2 µM)" reported_result=0.493
molecule="NC(=O)Nc1cc(-c2cccc(F)c2)sc1C(=O)N[C@H]1CCCNC1 [AZD7762] + C[C@]1(O)C[C@@H](c2nc(-c3ccc4ccc(-c5ccccc5)nc4c3)c3c(N)nccn32)C1 [Linsitinib] (partner 1 µM)" reported_result=0.811
molecule="NC(=O)Nc1cc(-c2cccc(F)c2)sc1C(=O)N[C@H]1CCCNC1 [AZD7762] + CC(C)C[C@H](NC(=O)[C@H](Cc1ccccc1)NC(=O)c1cnccn1)B(O)O [Bortezomib] (partner 0.002 µM)" reported_result=0.767
molecule="NC(=O)Nc1cc(-c2cccc(F)c2)sc1C(=O)N[C@H]1CCCNC1 [AZD7762] + Nc1nc2[nH]cc(CCc3ccc(C(=O)N[C@@H](CCC(=O)O)C(=O)O)cc3)c2c(=O)[nH]1 [Pemetrexed] (partner 0.2 µM)" reported_result=0.644

* * *

- Tested on: NCI-H358
- method: relative viability (nuclei count vs DMSO), 5 days (fraction); higher = more cells survive
- condition: first compound 0.253 µM
Below, each entry is listed with its recorded relative viability.
property-measured: relative viability

compound="Oc1nc(-c2ccc(C(F)(F)F)cc2)nc2c1CSCC2 [XAV939] + Cc1nc(Nc2ncc(C(=O)Nc3c(C)cccc3Cl)s2)cc(N2CCN(CCO)CC2)n1 [Dasatinib] (partner 0.075 µM)" reported_result=0.166
compound="C=C1C(=O)O[C@@H](CCCCCCCC)[C@@H]1C(=O)O [C-75] + CS(=O)(=O)CCNCc1ccc(-c2ccc3ncnc(Nc4ccc(OCc5cccc(F)c5)c(Cl)c4)c3c2)o1 [Lapatinib] (partner 2 µM)" reported_result=0.434
compound="Oc1nc(-c2ccc(C(F)(F)F)cc2)nc2c1CSCC2 [XAV939] + CCNC(=O)c1noc(-c2cc(C(C)C)c(O)cc2O)c1-c1ccc(CN2CCOCC2)cc1 [Luminespib] (partner 0.01 µM)" reported_result=0.32
compound="Oc1nc(-c2ccc(C(F)(F)F)cc2)nc2c1CSCC2 [XAV939] + Nc1ncn([C@H]2C[C@H](O)[C@@H](CO)O2)c(=O)n1 [Decitabine] (partner 2 µM)" reported_result=0.207

* * *

- System: NCI-H520
- method: relative viability (nuclei count vs DMSO), 5 days (fraction); higher = more cells survive
- condition: first compound 0.08 µM
The threshold is 0.2. Values of relative viability beneath it are tagged yes (1); values meeting or exceeding it are tagged no (0).

compound="C=C1C(=O)O[C@@H](CCCCCCCC)[C@@H]1C(=O)O [C-75] + O=C(CCCCCCC(=O)Nc1ccccc1)NO [Vorinostat] (partner 1 µM)" classification="no (0)"
compound="C=C1C(=O)O[C@@H](CCCCCCCC)[C@@H]1C(=O)O [C-75] + Cc1nc(Nc2ncc(C(=O)Nc3c(C)cccc3Cl)s2)cc(N2CCN(CCO)CC2)n1 [Dasatinib] (partner 0.075 µM)" classification="yes (1)"
compound="C=C1C(=O)O[C@@H](CCCCCCCC)[C@@H]1C(=O)O [C-75] + N=C(N)NC(=N)NCCc1ccccc1 [Phenformin] (partner 250 µM)" classification="no (0)"
compound="C=C1C(=O)O[C@@H](CCCCCCCC)[C@@H]1C(=O)O [C-75] + CC(C)C[C@H](NC(=O)[C@H](Cc1ccccc1)NC(=O)c1cnccn1)B(O)O [Bortezomib] (partner 0.002 µM)" classification="no (0)"
compound="C=C1C(=O)O[C@@H](CCCCCCCC)[C@@H]1C(=O)O [C-75] + CC(=O)c1c(C)c2cnc(Nc3ccc(N4CCNCC4)cn3)nc2n(C2CCCC2)c1=O [Palbociclib] (partner 0.5 µM)" classification="yes (1)"
compound="C=C1C(=O)O[C@@H](CCCCCCCC)[C@@H]1C(=O)O [C-75] + COc1cccc2cc(-c3nc([C@H]4CC[C@H](C(=O)O)CC4)n4ncnc(N)c34)[nH]c12 [OSI-027] (partner 0.5 µM)" classification="no (0)"

* * *

- System: HCC-827
- method: relative viability (nuclei count vs DMSO), 5 days (fraction); higher = more cells survive
- condition: first compound 0.005 µM
# reported relative viability; entries follow
property-measured: relative viability

compound="CC1(C)CCC(c2ccc(Cl)cc2)=C(CN2CCN(c3ccc(C(=O)NS(=O)(=O)c4ccc(N[C@H](CCN5CCOCC5)CSc5ccccc5)c(S(=O)(=O)C(F)(F)F)c4)cc3)CC2)C1 [Navitoclax] + Cc1cc(Nc2cc(N3CCN(C)CC3)nc(Sc3ccc(NC(=O)C4CC4)cc3)n2)n[nH]1 [Tozasertib] (partner 0.1 µM)" tested_on=HCC-827 reported_result=0.437
compound="CC1(C)CCC(c2ccc(Cl)cc2)=C(CN2CCN(c3ccc(C(=O)NS(=O)(=O)c4ccc(N[C@H](CCN5CCOCC5)CSc5ccccc5)c(S(=O)(=O)C(F)(F)F)c4)cc3)CC2)C1 [Navitoclax] + CCNC(=O)c1noc(-c2cc(C(C)C)c(O)cc2O)c1-c1ccc(CN2CCOCC2)cc1 [Luminespib] (partner 0.01 µM)" tested_on=HCC-827 reported_result=0.681
compound="CC1(C)CCC(c2ccc(Cl)cc2)=C(CN2CCN(c3ccc(C(=O)NS(=O)(=O)c4ccc(N[C@H](CCN5CCOCC5)CSc5ccccc5)c(S(=O)(=O)C(F)(F)F)c4)cc3)CC2)C1 [Navitoclax] + O=C(CCCCCCC(=O)Nc1ccccc1)NO [Vorinostat] (partner 1 µM)" tested_on=HCC-827 reported_result=0.951

* * *

- Test system: NCI-H1395
- method: relative viability (nuclei count vs DMSO), 5 days (fraction); higher = more cells survive
- condition: first compound 0.03162 µM
Below, each entry is listed alongside its reported relative viability.
property-measured: relative viability

compound="NC(=O)Nc1cc(-c2cccc(F)c2)sc1C(=O)N[C@H]1CCCNC1 [AZD7762] + CC(=O)Nc1cccc(-n2c(=O)n(C3CC3)c(=O)c3c(Nc4ccc(I)cc4F)n(C)c(=O)c(C)c32)c1 [Trametinib] (partner 0.02 µM)" tested_on=NCI-H1395 property_measured="relative viability" reported_result=1.12
compound="NC(=O)Nc1cc(-c2cccc(F)c2)sc1C(=O)N[C@H]1CCCNC1 [AZD7762] + Cc1nc(Nc2ncc(C(=O)Nc3c(C)cccc3Cl)s2)cc(N2CCN(CCO)CC2)n1 [Dasatinib] (partner 0.075 µM)" tested_on=NCI-H1395 property_measured="relative viability" reported_result=0.424
compound="NC(=O)Nc1cc(-c2cccc(F)c2)sc1C(=O)N[C@H]1CCCNC1 [AZD7762] + CC1(C)CCC(c2ccc(Cl)cc2)=C(CN2CCN(c3ccc(C(=O)NS(=O)(=O)c4ccc(N[C@H](CCN5CCOCC5)CSc5ccccc5)c(S(=O)(=O)C(F)(F)F)c4)cc3)CC2)C1 [Navitoclax] (partner 0.5 µM)" tested_on=NCI-H1395 property_measured="relative viability" reported_result=1.66
compound="NC(=O)Nc1cc(-c2cccc(F)c2)sc1C(=O)N[C@H]1CCCNC1 [AZD7762] + CC(=O)c1c(C)c2cnc(Nc3ccc(N4CCNCC4)cn3)nc2n(C2CCCC2)c1=O [Palbociclib] (partner 0.5 µM)" tested_on=NCI-H1395 property_measured="relative viability" reported_result=0.68

* * *

Listing: relative viability of selected compounds
- Test system: NCI-H2405
- method: relative viability (nuclei count vs DMSO), 5 days (fraction); higher = more cells survive
- condition: first compound 2.53 µM
property-measured: relative viability

compound="Oc1nc(-c2ccc(C(F)(F)F)cc2)nc2c1CSCC2 [XAV939] + Cc1nc(NC(=O)N2CCC[C@H]2C(N)=O)sc1-c1ccnc(C(C)(C)C(F)(F)F)c1 [Alpelisib] (partner 2 µM)" tested_on=NCI-H2405 property_measured="relative viability" reported_result=0.635
compound="Oc1nc(-c2ccc(C(F)(F)F)cc2)nc2c1CSCC2 [XAV939] + Cc1nc(Nc2ncc(C(=O)Nc3c(C)cccc3Cl)s2)cc(N2CCN(CCO)CC2)n1 [Dasatinib] (partner 0.075 µM)" tested_on=NCI-H2405 property_measured="relative viability" reported_result=0.229
compound="C=C1C(=O)O[C@@H](CCCCCCCC)[C@@H]1C(=O)O [C-75] + COc1cc2c(Oc3ccc(NC(=O)C4(C(=O)Nc5ccc(F)cc5)CC4)cc3F)ccnc2cc1OCCCN1CCOCC1 [Foretinib] (partner 0.25 µM)" tested_on=NCI-H2405 property_measured="relative viability" reported_result=0.882
